Values from patent US20050282743A1

test_target: T1, GST-APXL-1 PDZ domain 1 (Homo sapiens (Human)), Q13796
T1 chain: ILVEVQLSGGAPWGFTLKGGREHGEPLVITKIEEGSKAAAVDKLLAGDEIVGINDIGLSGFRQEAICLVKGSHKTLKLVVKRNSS
protocol_summary: G' assay; note: key of the grades not given here
measurement_name: Classification

In [3]: df
Out[3]:
                                     binder        result
0  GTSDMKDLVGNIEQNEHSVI (modifications not checked) [Mannose Receptor]  1 A450 class
1  EVIGYIEKPGVETLEDSVF (modifications not checked) [CDW125 (modified)]  1 A450 class
2  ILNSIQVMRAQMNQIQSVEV (modifications not checked) [ephrin B2]  1 A450 class
3  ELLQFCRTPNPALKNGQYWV (modifications not checked) [CSPG4 (chondroitin sulfae proteoglycan 4, melanoma-associated)]  3 A450 class
